# System: HepG2
# test.details: GSK_TCMDC: Percent inhibition of human HepG2 cell line. Test compounds present at 10uM.
# Assay type: functional
Label rule met when Inhibition < 60%; otherwise rule not met.

Decide: Inhibition of COc1ccccc1C1CCN(C2CCC(NC(=O)/C=C/c3ccc(C(F)(F)F)cc3)CC2)CC1 (centres undefined) strictly below 60%? rule met

Decide: Inhibition of COc1ccc2ncc(C#N)c(CCN3CCC(NCc4ccc5c(n4)NC(=O)CS5)CC3)c2n1.Cl strictly below 60%? rule met

* * *

# Test system: HepG2
# test.details: GSK_TCMDC: Percent inhibition of human HepG2 cell line. Test compounds present at 10uM.
# Type: functional
Decide by Inhibition: equal to or exceeding 10% means 1, less means 0.

For orientation, consider the following solved cases.
compound=Clc1cccc(CNC2CCN(CC3CCCCC3)CC2)c1.O=C(O)C(F)(F)F assigned_class=0
compound=CCCC1(NC[C@@H](O)[C@H](Cc2ccccc2)NC(=O)c2cc(NCC)cc(N3CCCCS3(=O)=O)c2)CCCCC1.Cl assigned_class=0
compound=O=C(NCCCCN1CCC(c2ccc3c(c2OCCO)CCCC3)CC1)c1sc(-c2ccc(C(F)(F)F)cc2)nc1CO assigned_class=1

Kindly determine if Inhibition recorded for N#Cc1cccc(COC(=O)C2=C(COc3ccccc3Cl)NC(=O)NC2c2c[nH]c3cnccc23)c1 (centres undefined) is above or exactly 10%. 0

Kindly determine if Inhibition recorded for CCCCCCN1CCCN(Cc2ccc(C(=O)Nc3cccc(CC)c3)cc2)CC1.O=C(O)C(F)(F)F is above or exactly 10%. 1

Kindly determine if Inhibition recorded for O=C(NCc1cccc(Br)c1)c1ccc(CNC2CCN(Cc3ccccc3)CC2)cc1.O=C(O)C(F)(F)F is above or exactly 10%. 0

Kindly determine if Inhibition recorded for CCOC(=O)c1c(C)n(-c2ccccc2)c2ccc(OC(=O)COc3ccc(Cl)cc3Cl)cc12 is above or exactly 10%. 1

Kindly determine if Inhibition recorded for COC(=O)c1cc(OC2CCOC2=O)cc2c1OC(C)(C)O2 (centres undefined) is above or exactly 10%. 0

* * *

# Tested on: Plasmodium falciparum
# test.details: GSK_TCMDC: Inhibition of Plasmodium falciparum Dd2 in whole red blood cells, using parasite LDH activity as an index of growth. Test compounds present at 2uM
# Type: functional
outcome.measure: Inhibition (%)
Number in %, nothing else.

molecule=Cc1[nH]c(C)c(-c2ccc(-c3ccccc3F)nc2)c(=O)c1Br readout_value=97
molecule=O=C(N[C@H]1CCN(Cc2ccc(OCCCN3CCCCC3)cc2)C1)c1ccc(Oc2ccccc2)cc1 readout_value=11
molecule="CC1Cc2ccccc2N1CC(=O)Nc1cc(C(F)(F)F)ccc1-n1cncn1 (stereo not given)" readout_value=97
molecule=COc1ccc(C=NNc2ccnc3cc(F)c(C)cc23)c2ccccc12 readout_value=85

Could you now look at the following molecule, please?
Answer with reported Inhibition of CCCCCCN1CCC(CNCc2cccc(Cl)c2)CC1.O=C(O)C(F)(F)F 13

* * *

Attribute: Inhibition
# System: HepG2
# test.details: GSK_TCMDC: Percent inhibition of human HepG2 cell line. Test compounds present at 10uM.
# Assay type: functional
Number in %, nothing else.

Reference set, count: 3
sample_smiles=CCN(CC)CCN(Cc1ccc(-c2ccc(C(F)(F)F)cc2)cc1)C(=O)Cn1c(CCc2ccc(F)c(F)c2F)nc(=O)c2cccnc21.O=C(O)C(O)C(O)C(=O)O readout_value=29
sample_smiles=COc1ccc2nccc([C@@H](O)CN3CCC(NCc4cc5ccccc5o4)CC3)c2c1.O=C(O)C(=O)O readout_value=17
sample_smiles=O=C(O)C(F)(F)F.c1cc(CNCCc2ccncc2)cc(-c2ccc(-c3nc4ccccc4[nH]3)s2)c1 readout_value=1

Could you now look at the following compound, please?
Answer with reported Inhibition of CN(C)c1ccc(NC2=NC(N)=NC(C)(C)N2)cc1 0
